Recorded values, source patent US20230295310A1.

Biological target: T1, human CD3 expressed on cells (human, UniProt P07766 23-207; P04234 22-171; P09693 23-182)
T1 construct: whole, on cells; CD3 complex on Jurkat cells and on human primary T cells
T1 sequence (P07766 23-207, chain 1 of 3): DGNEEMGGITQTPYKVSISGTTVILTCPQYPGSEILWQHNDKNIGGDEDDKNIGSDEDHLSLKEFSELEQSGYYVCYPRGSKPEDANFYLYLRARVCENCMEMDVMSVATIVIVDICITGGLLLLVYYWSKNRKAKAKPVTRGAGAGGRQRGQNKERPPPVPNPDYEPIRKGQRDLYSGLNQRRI
T1 sequence (P04234 22-171, chain 2 of 3): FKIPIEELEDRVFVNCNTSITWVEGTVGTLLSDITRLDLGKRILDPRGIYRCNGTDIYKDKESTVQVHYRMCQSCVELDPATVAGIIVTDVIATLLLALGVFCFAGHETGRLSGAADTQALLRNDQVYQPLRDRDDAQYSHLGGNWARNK
T1 sequence (P09693 23-182, chain 3 of 3): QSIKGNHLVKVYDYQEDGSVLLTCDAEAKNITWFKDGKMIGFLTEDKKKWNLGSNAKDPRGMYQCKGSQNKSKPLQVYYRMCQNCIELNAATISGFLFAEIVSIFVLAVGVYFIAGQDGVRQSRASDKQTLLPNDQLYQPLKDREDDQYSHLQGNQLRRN
Test: flow cytometry, 25 nM

Binder	Human primary T Cell Binding (FOI)
mAb 163 (antibody, V domains shown) VH: EVQLVESGGGLVKTGGSLRLSCVASGFSFKKAWMNWVRQVPGKGLEWVGRIKRNTDGGTADYAAPVKGRFTLSRDDSKKTLFLQMNSLKTEDTAVYYCTTLDSSSYYVGYYYMDVWGKGTTVTVSS VL: DIQMTQSPSSVSASVGDRVIITCRASQDINNWLAWYQQKPGKAPKLLIYTASSLQSGVPSRFSGSGSGTDFTLTIGSLQPEDFATYYCQQAHSLPITFGQGTRLEIK	278
mAb 113 (antibody, V domains shown) VH: EVQLVESGGGLVKTGGSLRLSCVASGFSFKKAWMNWVRQAPGKGLEWVGRIKRNTDGGTTDYAAPVKGRFTLSRDDSKNTLYLQMNSLKTEDTAVYYCTTLDSSSWYVGYYYMDVWGKGTTVTVSS VL: DIQMTQSPSSVSASVGDRVTITCRASQDINNWLAWYQQKPGKAPKILIYTASSLQSGVPSRFSGSGSGTDFTLTISSLQPEDFATYYCQQAHSLPITFGQGTRLEIK	173
mAb 155 (antibody, V domains shown) VH: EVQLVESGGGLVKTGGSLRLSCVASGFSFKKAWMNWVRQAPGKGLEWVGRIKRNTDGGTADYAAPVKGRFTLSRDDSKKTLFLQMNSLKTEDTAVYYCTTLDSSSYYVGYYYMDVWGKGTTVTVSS VL: DIQMTQSPSSVSASVGDRVIITCRASQDINNWLAWYQQKPGKAPKLLIYTASSLQSGVPSRFSGSGSGTDFTLTIGSLQPEDFATYYCQQAHSLPISFGQGTRLDIK	274
mAb 69 (antibody, V domains shown) VH: QMLLVESGGGVVQPGRSLTLSCAASGFTFRSYGMHWVRQAPGRGLEWVAIIWYDGSTEYYADSVKGRFTISRANSKNMLYLQMNSLRAEDTAVYYCAAFDYTNSFDIWGQGTMVTVSS VL: DIVVTQTPLSSPVTLGQPASISCRSSQRFVHSDGNTYLSWLQQRPGQPPRLLIYKISNRISGVPDRFSGSGAGTDFKLKISRVEAEDVGIYYCMQATQFPYTFGQGTKLEIK	123
mAb 119 (antibody, V domains shown) VH: EVQLVESGGGLVQPGRSLRLSCAASGFTFDDYTMHWVRQAPGKGLEWVSGISWNSGSIGYADSVKGRFTISRDNAKNSLYLQMNSLRAEDTALYYCSKDSSGYGYYLNYSLDVWGKGTTVTVSS VL: EIVMTQSPATLSVSPGERATLSCRASQSVSNLAWYQQKPGQAPRLLIYGASTRATGIPARFSGSGSGTEFTLTISSLQSEDFAVYYCQQYNNWPHFGQGTRLQIK	95.4
